# System tested: T1, La RRM2-SBM (Homo sapiens, UniProt P05455 225-359)
# T1 sequence: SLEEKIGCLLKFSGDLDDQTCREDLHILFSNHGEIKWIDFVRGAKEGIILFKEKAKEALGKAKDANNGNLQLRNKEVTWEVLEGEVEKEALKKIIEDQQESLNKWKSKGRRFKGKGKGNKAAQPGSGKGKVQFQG
# Assay info: ITC; 50 mM KPi pH 7, 25 C; 50 mM KPi pH 7; ITC at 25 C (50 uM protein in cell, 500 uM RNA in syringe); NMR at 298 K, 0.1 mM protein, 90% H2O/10% D2O
# Measurement parameters: protein: recombinant; tags: IMAC tag (pET20b+; tag not specified)
pKd: −log10 of the molar value.
Readout: pKd

{"Binder": "AGACCGUGCACCAUGAGCACGAAUCCA (structured_RNA) [HCV-IRES domain IV]", "Readout": "pKd", "Measured result": 4.55}
